test: soluble on expression in E. coli; label from the status in PepcDB or PDB records
measuredMetric: soluble on expression in E. coli

INSERT INTO assay_data (seqtext, measuredmetric, observedvalue) VALUES
  ('MSAPLPPRGRGTASNPLNRFAPTHSEAFDDGWEQDVPPIQLTEVREEIARTVISRNQSPDLPFDRSINPYRGCEHGCIYCYARPSHAYWDLSPGIDFETRLIAKSNVASALEQELSKPGYRCAPINLGANTDPYQPLERERRLTRQVLEVLLRFRHPLTIVTKGSLILRDLDLLRELAEQNLVAVMISLTTLDDELKRILEPRAAAPSARLRAIRTLSGNGIPVGVLCSPMIPMVNDMELERLLQAARDAGARSAAYMLLRLPREVGPLFEEWLAAHYPQRAEHVMSLVRQCRGGEVYDSRFGHRFRGQGPFADLLAQRFAVAMKRLGLDRREGFGLDCSRFAVPGAQMALF', 'soluble on expression in E. coli', 'not soluble'),
  ('MFQNHKIMDLEVRTRLDDNRNLREVRIIPLGSGYNVGIVYSKEISDISDLNPKRILGIDMGVRNIVTIGNNMSEEGIAVKGGVLRSINQYFNKELSKLKSVSDRQNDGKGNTRRIKNLYAVRNGKIKDIMHKLSRAIIRYALSMNVDTIVIGHSQGWKHTPDMGKKNNQNFVQIPFNILIEQIRYKGQEAGINVIVLDESYTSVCSFIDNESIEKHETYMGKRIKRGIFRSHKGILIHADLNALYNTIKKAISEAFADGIEGIGLYPRSLSIREMITSKGLRLEHHHHHH', 'soluble on expression in E. coli', 'soluble'),
  ('MPESIPQFYKRIQSCDLQSDTTYSKEKPYFNIFSRQCNFGTVQFSYREFYKVTLIIGVGKLYYADKWILVNRPALLFSNPLVPYAWESISEEQKGVFCIFNERFVQSEEKNGSLANTPLFKVTGDKVFFLDDTQVAKVLDIYTQMQEENQSDYVNKFDVLRCYLHLLIHTALKMQDSNRYESHLNASQRITELFIELLDRQFPIDYPHAVLNLRTPADYANRLSVHVNHLNKVIKDTTGKTTSEMIAERIIKECTQYLLHSNLSISEIAYSLGFETVSYFSKFYRKHTGKSPSEVRERTII', 'soluble on expression in E. coli', 'not soluble'),
  ('MGSDKIHHHHHHMENKLLVFLEAIQQHNSMTKAAQSLFISQPYISRTIKSAETHFGTPLIDRGHHPLELTYAGERLLTYLQSDARLHQRMNTELKEISQNKYQSMTIGITPPMANAWFSQTLPAFYQRFPNIRTKILEITTSKAETLLASHQLDFFIGKTIHQTNVKTIPLQTISLSLVIPKTAGIYQSNQFWRPFTPTILTGMTGEPVIRAVGEARFQELVDHYFADKGIQTIPLIEVDNSRFALSLTLQGLGSIVLATAMLARLATEPAKYPINAFKLPTSELSLDFSIAYLPSHVLAKPIAYLVEQACQTFNPAIDF', 'soluble on expression in E. coli', 'not soluble'),
  ('TKDFSWTTSLNLSHNKNKIVKLADLPEFIDGNYIRKEGCSYATIYLREYAGVDPNDGRPMYYDNKEDENGNRSRNIVYDPNDADRVELKDIYPKLTGGLMNTFNYKFIDLSFNLSFHLGGYSYDGAMYALQDDGYTAQYNKSTELRRRWKQPGDITDVPRYVYGQEYGGWWNSSRGVHSTDHLRLKSLIVGVSAPQSWLRTIGINSARIYFSGTNLLTWAAYDQYDPELNGIVSYFTPPLKTFAFGLELKF', 'soluble on expression in E. coli', 'not soluble'),
  ('MGSDKIHHHHHHMLEQFHIHADLKQQLSTIHEKNKQEAGENAHLIGTKIYKASDNSIIEDAITALLLGKNILLKGPTGSGKTVLAETLSSLFQKPMHSINCSVDLDVEGILGYNTLQTKDGASEVAFVNGPLMKAMKNGHFLYIDEINMAKPETLPLLHGALDYRKMITNPFTQEVVYGDDEYRVIAAINEGYVGTSELNEALKNRFVIIEVPYIQGDTLKELLLAESKLNDVTTIEKFVAFASDLMPLARDGRVSEEAASIRGIIDACDLGVYIPVMRAIERSIIAKLNDETEQMTVRELAESYFFEG', 'soluble on expression in E. coli', 'not soluble'),
  ('SSPEYAMEGIFSVKSDVFSFGVLVLEIVSGKRNRGFHNSGQDNNLLGYTWENWKEGKGLEIVDSIIVDSSSSMSLFQPHEVLRCIQIGLLCVQERAEDRPKMSSVIVPFCTR', 'soluble on expression in E. coli', 'soluble'),
  ('ENKILKIEKGTSGWGGPLYIKKEGNRNKILSMTAGGIHEVTLKIKELLGCEIVDGFKTGVSDEEVAVVIIDCGGTARCGVYPKKKIPTINVNPVGKTGPLAKFITEEYYVSDVNPNCISVVDGEDMPQKSQENKSENKSSIRKPDNYDEVKSKAQGEYAKKNIILSIGQGAGQVVSKFYDAGRDTIQMVMNN', 'soluble on expression in E. coli', 'not soluble'),
  ('MFKVDRYFDLTAPIYPYMPVWPSNPPVELKPIVTVPKDGYLAEIIEASTHTGTHIDAPAHMIEGGTTVDDLDLASLIGTGYCLKVLPDGHTIRSTHLAEKWQGIYNNSILLIETGWYKKRGYTREFQYDFPGLSEDAADFLIQKHVKAVGIDTLGIEPYENTDFRVHKKLLRSGIPIIEDLYGLDSLEEGRPYLIIALPLRLKGTSGSMARVVAAETELEHHHHHH', 'soluble on expression in E. coli', 'not soluble'),
  ('MPAVESNMFPLGKQAPPFALTNVIDGNVVRLEDVKSDVATVIMFICNHCPFVKHVQHELVRLANDYMPKGVSFVAINSNDAEQYPEDSPENMKKVAKELGYPFPYLYDETQEVAKAYDAACTPDFYIFDRELKCVYRGQLDDSRPNNGIPVTGESIRAALDALLEGRPVPEKQKPSIGCSIKWKPSA', 'soluble on expression in E. coli', 'not soluble'),
  ('MKSIISLMAACAIGAASFAAPAFAQDKGSVGIAMPTKSSARWIDDGNNIVKQLQEAGYKTDLQYADDDIPNQLSQIENMVTKGVKVLVIASIDGTTLSDVLKQAGEQGIKVIAYDRLIRNSGDVSYYATFDNFQVGVLQATSITDKLGLKDGKGPFNIELFGGSPDDNNAFFFYDGAMSVLKPYIDSGKLVVKSGQMGMDKVGTLRWDPATAQARMDNLLSAYYTDAKVDAVLSPYDGLSIGIISSLKGVGYGTKDQPLPVVSGQDAEVPSVKSIIAGEQYSTIFKDTRELAKVTVNMVNAVMEGKEPEVNDTKTYENGVKVVPSYLLKPVAVTKENYKQVLVDGGYYKEDQLK', 'soluble on expression in E. coli', 'not soluble');
